Measured remaining at 1 h, 1 µM values are reported for all entries that follow.
System: Pancreatin
Assay summary: Protease stability in simulated intestinal fluid (Pancreatin-SIF, FaSSIF)
Type: in vitro ADME
Condition: 60 min, 1 μM peptide, 37° C., read-out: FaSSIF 60 (min), remaining percent of peptide
Starred links: 1 amine or outer side, 2 acyl side, 3 side chain; linkers in the order of their positions; H or OH if unused. Positions of bridges follow the written chain, without caps; N, C: chain ends. Non-standard residues stand in square brackets, D forms with d. Residues, ends and D or L forms follow the SMILES beside them. *: point of attachment. X6 = O=C(CCC(=O)[*:3])N[C@@H](CS[*:2])C(=O)[*:1]; Trp(7-Me) = Cc1cccc2c(C[C@H](N)C(=O)O)c[nH]c12; X1 = O=C(CCCCN[*:3])N[C@@H](CS[*:2])C(=O)[*:1]; 2Nal = N[C@@H](Cc1ccc2ccccc2c1)C(=O)O; 3Pal = N[C@@H](Cc1cccnc1)C(=O)O; αMeL = CC(C)C[C@](C)(N)C(=O)O; Thp = NC1(C(=O)O)CCOCC1; Me2NCH2CH2 = CN(C)CC*; Aib = CC(C)(N)C(=O)O; Ava = NCCCCC(=O)O; Sar = CNCC(=O)O
Note: unit % is implicit; provide only the numeric part.

Consider the reported remaining at 1 h, 1 µM for these molecules:
CC(=O)NCCCC[C@@H]1NC(=O)[C@H](Cc2c[nH]c3c(C)cccc23)NC(=O)[C@@H](NC(C)=O)CCCCNC(=O)[C@@H]2CSSC[C@H](NC1=O)C(=O)N[C@@H](Cc1ccc(OCCN(C)C)cc1)C(=O)N[C@@H](Cc1ccc3ccccc3c1)C(=O)NC1(CCOCC1)C(=O)N[C@H](C(=O)N[C@@H](CC(N)=O)C(=O)N[C@@H](Cc1cccnc1)C(=O)N(C)CC(N)=O)CCCCN(C)CCCCN2C
99
CC(=O)NCCCC[C@@H]1NC(=O)[C@H](Cc2c[nH]c3c(C)cccc23)NC(=O)[C@@H](NC(C)=O)CCCCNC(=O)[C@@H]2CSSC[C@H](NC1=O)C(=O)N[C@@H](Cc1ccc(OCCN(C)C)cc1)C(=O)N[C@@H](Cc1ccc3ccccc3c1)C(=O)N[C@@](C)(CC(C)C)C(=O)N[C@H](C(=O)N[C@@H](CC(N)=O)C(=O)N[C@@H](Cc1cccnc1)C(=O)N(C)CC(N)=O)CCCCNC(=O)CCC(=O)N2 [compound 106] (Ac-K[Trp(7-Me)]K(Ac)CY(Me2NCH2CH2)[2Nal][αMeL]KN[3Pal][Sar]-NH2; linker 1-4-8 via X6)
76
CC(=O)N[C@H]1CCCCNC(=O)[C@@H]2CSSC[C@H](NC(=O)[C@H](CCC(N)=O)NC(=O)[C@H](Cc3c[nH]c4ccccc34)NC1=O)C(=O)N[C@@H](Cc1ccc(OCCN(C)C)cc1)C(=O)N[C@@H](Cc1ccc3ccccc3c1)C(=O)N[C@@](C)(CC(C)C)C(=O)N[C@H](C(=O)N[C@@H](CC(N)=O)C(=O)NCC(N)=O)CCC(=O)NCCCCC(=O)N2 [compound 31] (Ac-KWQCY(Me2NCH2CH2)[2Nal][αMeL]ENG-NH2; linker 1-4-8 via X1)
83
C[C@@H](O)[C@@H]1NC(=O)[C@H](CC(N)=O)NC(=O)[C@@H]2CSSC[C@H](NC(=O)[C@H](CCC(N)=O)NC(=O)[C@H](Cc3c[nH]c4ccccc34)NC1=O)C(=O)N[C@@H](Cc1ccc(OCCN(C)C)cc1)C(=O)N[C@@H](Cc1ccc3ccccc3c1)C(=O)NC1(CCOCC1)C(=O)N[C@H](C(=O)N[C@@H](CC(N)=O)C(=O)N[C@@H](CC(N)=O)C(N)=O)CCC(=O)NCCCCC(=O)N2 [compound 26] ([Ava]CNTWQCY(Me2NCH2CH2)[2Nal][Thp]ENN-NH2; disulfide 2-7; lactam N-11)
95

# evaluate next
Lab note: need remaining at 1 h, 1 µM with Pancreatin for entry Cc1cccc2c(C[C@@H]3NC(=O)[C@H]([C@@H](C)O)NC(=O)[C@H](CC(N)=O)NC(=O)[C@@H]4CSSC[C@H](NC(=O)[C@H](CCC(N)=O)NC3=O)C(=O)N[C@@H](Cc3ccc(OCCN(C)C)cc3)C(=O)N[C@@H](Cc3ccc5ccccc5c3)C(=O)NC(C)(C)C(=O)N[C@H](C(=O)N[C@@H](CO)C(=O)N[C@@H](Cc3c[nH]cn3)C(N)=O)CCC(=O)NCCCCC(=O)N4)c[nH]c12 [compound 43] ([Ava]CNT[Trp(7-Me)]QCY(Me2NCH2CH2)[2Nal][Aib]ESH-NH2; disulfide 2-7; lactam N-11) , please look it up.
83
